# testSystem: human sodium channels Nav 1.8 (Homo sapiens, UniProt Q9Y5Y9)
# Sequence (Q9Y5Y9 whole entry): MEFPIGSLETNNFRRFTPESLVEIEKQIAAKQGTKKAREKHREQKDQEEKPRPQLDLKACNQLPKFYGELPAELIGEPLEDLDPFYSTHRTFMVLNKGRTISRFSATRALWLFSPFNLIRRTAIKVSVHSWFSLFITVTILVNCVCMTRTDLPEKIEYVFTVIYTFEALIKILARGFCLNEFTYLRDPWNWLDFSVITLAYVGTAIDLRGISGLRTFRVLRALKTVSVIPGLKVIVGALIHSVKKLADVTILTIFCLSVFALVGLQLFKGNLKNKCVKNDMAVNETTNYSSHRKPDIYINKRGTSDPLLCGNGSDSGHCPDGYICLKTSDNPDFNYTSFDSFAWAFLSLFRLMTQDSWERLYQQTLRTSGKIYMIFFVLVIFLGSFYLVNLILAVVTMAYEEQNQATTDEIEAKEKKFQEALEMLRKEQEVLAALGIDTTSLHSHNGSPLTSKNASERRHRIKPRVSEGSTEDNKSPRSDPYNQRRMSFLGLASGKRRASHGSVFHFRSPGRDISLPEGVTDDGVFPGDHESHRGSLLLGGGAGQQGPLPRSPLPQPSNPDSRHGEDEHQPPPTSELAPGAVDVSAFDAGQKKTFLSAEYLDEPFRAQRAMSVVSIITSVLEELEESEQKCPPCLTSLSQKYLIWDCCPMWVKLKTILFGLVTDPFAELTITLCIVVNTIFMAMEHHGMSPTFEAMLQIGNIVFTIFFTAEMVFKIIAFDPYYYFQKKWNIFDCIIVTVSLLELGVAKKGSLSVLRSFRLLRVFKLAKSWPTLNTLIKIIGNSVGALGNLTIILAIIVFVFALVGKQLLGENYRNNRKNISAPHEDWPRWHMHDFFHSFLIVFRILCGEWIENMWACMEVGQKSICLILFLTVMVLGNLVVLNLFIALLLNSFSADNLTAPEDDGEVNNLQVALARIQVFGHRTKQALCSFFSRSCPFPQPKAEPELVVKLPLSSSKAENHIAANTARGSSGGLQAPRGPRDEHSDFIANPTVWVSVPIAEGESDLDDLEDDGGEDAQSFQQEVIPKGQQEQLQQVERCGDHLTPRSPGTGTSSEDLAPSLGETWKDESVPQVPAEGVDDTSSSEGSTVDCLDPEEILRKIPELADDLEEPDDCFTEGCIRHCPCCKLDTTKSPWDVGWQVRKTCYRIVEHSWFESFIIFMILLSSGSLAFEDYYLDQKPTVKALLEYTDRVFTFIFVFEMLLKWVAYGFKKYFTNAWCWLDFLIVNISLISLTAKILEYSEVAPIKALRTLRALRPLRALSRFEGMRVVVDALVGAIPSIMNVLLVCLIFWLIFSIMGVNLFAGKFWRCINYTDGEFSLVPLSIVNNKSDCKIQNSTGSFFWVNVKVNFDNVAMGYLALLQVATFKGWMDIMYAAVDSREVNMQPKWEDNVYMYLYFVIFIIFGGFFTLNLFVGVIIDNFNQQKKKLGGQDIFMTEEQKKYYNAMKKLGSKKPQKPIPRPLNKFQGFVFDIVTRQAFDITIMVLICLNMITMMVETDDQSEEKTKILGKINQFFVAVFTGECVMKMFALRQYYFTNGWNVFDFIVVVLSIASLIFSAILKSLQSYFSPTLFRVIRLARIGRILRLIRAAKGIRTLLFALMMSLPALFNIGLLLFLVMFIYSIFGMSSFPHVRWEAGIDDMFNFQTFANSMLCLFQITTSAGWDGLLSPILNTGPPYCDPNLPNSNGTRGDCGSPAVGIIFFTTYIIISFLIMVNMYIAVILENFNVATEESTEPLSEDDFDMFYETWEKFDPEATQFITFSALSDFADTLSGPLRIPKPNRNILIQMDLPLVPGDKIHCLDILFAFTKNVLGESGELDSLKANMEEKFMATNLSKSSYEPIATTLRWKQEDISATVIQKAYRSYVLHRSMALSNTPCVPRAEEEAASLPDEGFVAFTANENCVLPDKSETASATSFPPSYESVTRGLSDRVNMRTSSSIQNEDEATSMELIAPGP
# assaySummary: Automated whole-cell voltage-clamp (ScreenPatch 384P) sodium current block, Nav 1.8
# particulars: CHO cells stably expressing human Nav 1.8; inactivation step -40 mV 8 s, test step 10 mV (TP1A); eight concentrations; exposure at least five minutes; room temperature; read-out: Nav1.8 IC50
Reported IC50 values for a set of compounds

Examples with answers:
{"smilesEntry": "CCOc1ncc(-c2cncc(C(=O)N/N=C/c3cc(OC)cnc3F)n2)cc1O", "testSystem": "human sodium channels Nav 1.8 (Homo sapiens, UniProt Q9Y5Y9)", "measurementKind": "IC50", "observedValue": "0.5 to 1 µM"}
{"smilesEntry": "COc1cnc(F)c(/C=N/NC(=O)c2cncc(-c3ccc(O)nc3)n2)c1", "testSystem": "human sodium channels Nav 1.8 (Homo sapiens, UniProt Q9Y5Y9)", "measurementKind": "IC50", "observedValue": "> 1 µM"}
{"smilesEntry": "CCOc1ccc(-c2nccc(C(=O)N/N=C/c3cc(OC)cnc3F)n2)cn1", "testSystem": "human sodium channels Nav 1.8 (Homo sapiens, UniProt Q9Y5Y9)", "measurementKind": "IC50", "observedValue": "< 0.5 µM"}

// below: IC50 requested for another compound
Bench note: what IC50 did "COc1ccc(F)c(/C=N/NC(=O)c2cnc(O)c(-c3ccc(OC(F)(F)F)nc3)n2)c1" show? > 1 µM
